- test: Clinical pharmacokinetics, phase I study in patients with solid tumors
- Type: in vivo
- measurement-parameters: human, plasma, iv
property-measured: Vd (L/kg)
Use L/kg as the unit, but write only the number.

Given Cn1c(COP(=O)(NCCBr)NCCBr)cnc1[N+](=O)[O-] [Evofosfamide] , state its recorded Vd.
0.43

###

- test-system: CYP2B6 (Homo sapiens)
- Sequence (P20813 1-491): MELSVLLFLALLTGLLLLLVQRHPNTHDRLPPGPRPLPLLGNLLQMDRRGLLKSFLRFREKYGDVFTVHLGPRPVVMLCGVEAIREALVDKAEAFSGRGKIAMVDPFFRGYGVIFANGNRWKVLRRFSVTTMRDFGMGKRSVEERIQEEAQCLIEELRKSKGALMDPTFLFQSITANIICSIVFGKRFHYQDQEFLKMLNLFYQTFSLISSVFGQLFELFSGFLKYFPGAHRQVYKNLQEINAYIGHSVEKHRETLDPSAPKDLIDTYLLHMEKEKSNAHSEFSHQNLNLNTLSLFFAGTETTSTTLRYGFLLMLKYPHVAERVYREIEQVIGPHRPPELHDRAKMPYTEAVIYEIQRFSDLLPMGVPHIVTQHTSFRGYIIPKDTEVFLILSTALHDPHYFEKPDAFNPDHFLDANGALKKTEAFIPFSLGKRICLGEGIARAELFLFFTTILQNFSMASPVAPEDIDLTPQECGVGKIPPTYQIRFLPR
- Assay type: in vitro ADME
- measurement-parameters: pooled human liver microsomes, probe efavirenz (8-hydroxylation)
property-measured: KI (inactivation) (mM)
Use mM as the unit, but write only the number.

Given Cn1c(COP(=O)(NCCBr)NCCBr)cnc1[N+](=O)[O-] [Evofosfamide] , state its recorded KI (inactivation).
3.2

###

- Test system: CYP3A4/5
- Format: in vitro ADME
- measurement-parameters: human, pooled human liver microsomes, probe midazolam (1'-hydroxylation)
property-measured: kinact (s⁻¹)
Use s⁻¹ as the unit, but write only the number.

Given Cn1c(COP(=O)(NCCBr)NCCBr)cnc1[N+](=O)[O-] [Evofosfamide] , state its recorded kinact.
0.000417

###

- test: logP by shaking octanol/water, HPLC quantification
- Type: physicochemical
property-measured: logP at 1 hour

Given Cn1c(COP(=O)(NCCBr)NCCBr)cnc1[N+](=O)[O-] [Evofosfamide] , state its recorded logP at 1 hour.
0.92

###

- test-system: CYP2B6 (Homo sapiens, UniProt P20813)
- Sequence (P20813 1-491): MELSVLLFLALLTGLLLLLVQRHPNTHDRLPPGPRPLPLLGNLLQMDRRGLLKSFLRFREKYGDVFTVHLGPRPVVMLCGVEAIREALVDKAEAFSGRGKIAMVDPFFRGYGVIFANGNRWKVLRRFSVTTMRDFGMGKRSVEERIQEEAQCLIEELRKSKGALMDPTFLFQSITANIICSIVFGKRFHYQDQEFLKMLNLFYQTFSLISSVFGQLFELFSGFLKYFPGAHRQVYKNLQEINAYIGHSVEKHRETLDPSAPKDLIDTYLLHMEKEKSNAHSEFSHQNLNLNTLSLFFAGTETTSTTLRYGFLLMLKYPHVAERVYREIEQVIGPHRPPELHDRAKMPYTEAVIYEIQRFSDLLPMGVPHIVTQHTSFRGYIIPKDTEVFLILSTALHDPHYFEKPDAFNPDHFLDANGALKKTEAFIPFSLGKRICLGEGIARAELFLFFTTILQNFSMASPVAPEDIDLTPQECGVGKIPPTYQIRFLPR
- Assay type: in vitro ADME
- measurement-parameters: pooled human liver microsomes, probe efavirenz (8-hydroxylation)
property-measured: kinact (s⁻¹)
Use s⁻¹ as the unit, but write only the number.

Test system CYP2B6 (Homo sapiens, UniProt P20813); read-out kinact; what value for Cn1c(COP(=O)(NCCBr)NCCBr)cnc1[N+](=O)[O-] [Evofosfamide] ?
0.000533
